Target: T1, human IgEλ (U266 derived) (human, UniProt P01854-1 1-428)
T1 construct: Whole IgE purified from U266 cells (Ikeyama et al. 1986); labelled with europium cryptate or biotin in some assays; also called human IgE (U266-derived); human IgE lambda
T1 sequence (P01854 other isoform, or with tags, fused parts or gaps): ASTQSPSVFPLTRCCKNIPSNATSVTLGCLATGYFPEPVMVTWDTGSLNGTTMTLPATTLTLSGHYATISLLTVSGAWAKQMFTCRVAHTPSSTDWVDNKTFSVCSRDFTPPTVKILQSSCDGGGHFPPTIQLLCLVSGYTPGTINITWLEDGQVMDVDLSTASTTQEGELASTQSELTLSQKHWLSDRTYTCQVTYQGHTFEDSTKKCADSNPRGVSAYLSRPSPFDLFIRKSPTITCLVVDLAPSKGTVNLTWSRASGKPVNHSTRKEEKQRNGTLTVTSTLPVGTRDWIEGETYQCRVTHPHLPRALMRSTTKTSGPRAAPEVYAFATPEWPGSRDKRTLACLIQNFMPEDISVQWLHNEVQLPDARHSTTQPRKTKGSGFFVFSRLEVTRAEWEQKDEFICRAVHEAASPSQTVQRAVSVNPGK
Experiment: HTRF competition: scFv against Eu-cryptate human IgE binding to human FcεRI-Fc
Collected IC50 values appear next to each entry.
API: value field is a number in nM; no unit string.

Binder	IC50 [nM]
Antibody 2 scFv (scFv, V domains shown, Purified scFv, non-germlined; not shown: scFv linker and any tags; the libraries are only cited to Vaughan et al. 1996) VH: QVQLVQSGAEVKKPGATVKLSCKVYGYIFTDYNIYWVRQAPGKGLEWMGLIDPDNGETFYAEKFQGRATMTADTSSDRAYMELTSLTFEDTATYYCATVSLRSAKGGYDYWGRGTLVTVSS VL: QSVLTQPPSVSGAPGQRVTISCTGSSSNIGAGYDVHWYQQLPGTAPKLLIYDNFNRPSGVPDRFSGSKSGTSASLAIIGLQTEDEADYYCQSYDSSLSGSLFGTGTKLTVL	28

Note: attention shifts to another entry.
Which measured IC50 value corresponds to Antibody 21 scFv (scFv, V domains shown, Purified scFv, non-germlined) VH: QVQLVQSGAEVKKPGATVKLSCKVYGYIFTDYNIYWVRQAPGKGLEWMGLIDPDNGETFYAEKFQGRATMTADTSSDRAYMELTSLTFEDTATYYCATVTLKSAKGGYDYWGRGTLVTVSS VL: QSVLTQPPSVSGAPGQRVTISCTGSSSNIGAGYDVHWYQQLPGTAPKLLIYDNFNRPSGVPDRFSGSKSGTSASLAIIGLQTEDEADYYCQSYDSSSQLSPFGTGTKLTVL ? 6

All figures here come from patent US20090060919A1.
